# Test system: P388 leukemia ip, CD2F1 mice, survival T/C
# PROCEDURE TEXT: NCI In Vivo Anticancer Drug Screen. Data for tumor model P388 Leukemia (intraperitoneal) in CD2F1 (CDF1) mice
# CONDITION SUMMARY: endpoint: median survival time; dose: 100.0 mg/kg/injection; schedule: Q01DX009 (ip); vehicle: saline; higher = longer survival
# Protocol: The antitumor activity of compounds was measured in mice bearing transplantable tumors. Survival or tumor size were measured and the results are expressed as the measurement made in the treated group (T) divided by the measurement made in the vehicle treated control group (C). The tumor model used in this assay is P388 Leukemia (intraperitoneal) in CD2F1 (CDF1) mice
Toxic doses and inconclusive results are not listed.
MEASURED METRIC: T/C

Below: 5 compounds and their reported T/C.
CC(=O)NO :: 96 % of control
CC(C)(CN1CCCN(CC(C)(C)C(=O)O)C1=O)C(=O)O :: 94 % of control
COc1cc(-c2ccc(N=Nc3c(O)ccc4ccccc34)c(OC)c2)ccc1N=Nc1ccc2c(S(=O)(=O)O)cc(S(=O)(=O)O)c(N)c2c1O :: 118 % of control
CC(C)N1CCN(c2ccncc2S(=O)(=O)N2CCCC2)CC1 :: 99 % of control
CC(C)(COS(C)(=O)=O)COS(C)(=O)=O :: 91 % of control

# input for lookup
*Q* May I ask what T/C has been recorded for O=c1[nH][nH]c(=O)c2c1CCCC2 ?
*A* 100 % of control

====

# System: P388 leukemia ip, CD2F1 mice, survival T/C
# PROCEDURE TEXT: NCI In Vivo Anticancer Drug Screen. Data for tumor model P388 Leukemia (intraperitoneal) in CD2F1 (CDF1) mice
# CONDITION SUMMARY: endpoint: median survival time; dose: 25.0 mg/kg/injection; schedule: Q04DX002 (ip); vehicle: saline with Tween-80
Toxic doses and inconclusive results are not listed. The calls were made as follows: active = survival T/C of 150% or more; inactive = T/C below 125% in these data.
A correct response names exactly one class from Yes (active), No (inactive)

Consider the following illustrative entries.
[Cl][Pt+2][Cl].[NH-]c1ccc(C(=O)O)cc1[NH-] :: No
CC(CC(=O)c1ccccc1)=NCCCCN=C(C)CC(=O)c1ccccc1 :: No

*Q* Per the assay record, what outcome was assigned to O=[N+]([O-])O.[Mn].c1ccc(/C2=c3\cc/c([n-]3)=C(\c3ccccc3)c3ccc([n-]3)/C(c3ccccc3)=c3/cc/c([n-]3)=C(\c3ccccc3)c3ccc2[n-]3)cc1 ?
*A* No

*Q* Per the assay record, what outcome was assigned to NC1=NC(c2ccccc2)C=C(c2ccccc2)N1 (stereo not drawn) ?
*A* No

*Q* Per the assay record, what outcome was assigned to N#Cc1c(N2CCOCC2)cc(-c2ccccc2)oc1=O ?
*A* No

*Q* Per the assay record, what outcome was assigned to [Cl][Pt+2][Cl].[NH-]Cc1ccccc1[NH-] ?
*A* Yes

*Q* Per the assay record, what outcome was assigned to O=C1c2ccccc2C(=O)c2c(Nc3cccc(S(=O)(=O)N(CCO)CCO)c3)ccc(O)c21 ?
*A* No

*Q* Per the assay record, what outcome was assigned to CC(=O)n1c2ccccc2c2c(C)c3cnccc3c(C)c21 ?
*A* No

====

# System: P388 leukemia ip, CD2F1 mice, survival T/C
# PROCEDURE TEXT: NCI In Vivo Anticancer Drug Screen. Data for tumor model P388 Leukemia (intraperitoneal) in CD2F1 (CDF1) mice
# CONDITION SUMMARY: endpoint: median survival time; dose: 25.0 mg/kg/injection; schedule: Q01DX009 (ip); vehicle: Klucel (hydroxypropylcellulose) (HPC); higher = longer survival
Inconclusive results and toxic doses are left out.
MEASURED METRIC: T/C

Below: 5 molecules and their reported T/C.
Cc1cc(NS(=O)(=O)c2ccc(N)cc2)no1.[Ag] :: 101 % of control
COC(=O)C1C(O)C(C)C(O)OC1C(C)C(O)C(C)/C=C\C=C(/C)C(=O)Nc1c(C)c(OC(C)=O)c2c(c1O)C(=O)C(C)=C1OCOC(/C(C)=C/C(C)=O)=C12 (configuration not stated) :: 108 % of control
COC1/C=C\OC2(C)Oc3c(C)c(O)c4c(c3C2=O)C(=O)C(Br)=C(NC(=O)/C(C)=C\C=C/C(C)C(O)C(C)C(O)C(C)C(OC(C)=O)C1C)C4=O (configuration not stated) :: 102 % of control
COC(=O)/C(=C1/OC(=O)C(c2ccccc2)=C1O)c1ccccc1 :: 99 % of control
CC(C)(C)CC(C)(C)c1ccc(OCCOc2ccc(C(=O)NCCNC(=O)c3ccc4ccccc4c3O)cc2N)cc1 :: 102 % of control

*Q* Form field - read-out: T/C; system: P388 leukemia ip, CD2F1 mice, survival T/C; submitted item: CCCN1C[C@H](CSC)C[C@@H]2c3cccc4[nH]cc(c34)C[C@H]21
*A* 99 % of control

*Q* Form field - read-out: T/C; system: P388 leukemia ip, CD2F1 mice, survival T/C; submitted item: O=C1OC(c2ccc([N+](=O)[O-])cc2)=N/C1=C\c1ccc(Cl)cc1
*A* 88 % of control
